The values you see were collected from ChEMBL document CHEMBL5046279.

- protocol.details: Oral bioavailability in Sprague-Dawley rat at 5 mg/kg measured upto 24 hrs by LC-MS/MS analysis
- Assay type: ADME, organism-based
- experimental.conditions: in vivo
readout.label: bioavailability (%)
Form entry: value (%) — number only.

Name the reported bioavailability value associated with the molecule CCOP(=O)(Cn1ccc(NC(=O)c2cc(Oc3cnc(C(=O)N4CCC4)cn3)cc(OC(C)C)c2)n1)OCC
90

###

- protocol.details: Half life in CD1 mouse at 2.5 mg/kg, iv measured upto 24 hrs by LC-MS/MS analysis
- Type: ADME, organism-based
- experimental.conditions: in vivo
readout.label: half-life (h)
Lab book: enter the figure in h, no units written.

Query: half-life; subject: CCOP(=O)(Cn1ccc(NC(=O)c2cc(Oc3cnc(C(=O)N4CCC4)cn3)cc(OC(C)C)c2)n1)OCC
2.1

###

- protocol.details: Microsomal stability in human liver microsomes assessed as parent compound remaining at 0.5 uM measured after 10 mins in presence of NADPH
- Assay type: ADME, Microsome
- experimental.conditions: read-out: Stability
Property: remaining at 10 min, 0.5 µM; scope: individual molecules
API: value field is a number in %; no unit string.

Observe how each entry below is paired with its result.
Can you look up the measured remaining at 10 min, 0.5 µM of CCOP(=O)(Cn1ccc(NC(=O)c2cc(Oc3ccc(S(C)(=O)=O)cc3)cc(OC(CF)CF)c2)n1)OCC for me?
93

What remaining at 10 min, 0.5 µM value was documented for this molecule, CCOP(=O)(Cn1ccc(NC(=O)c2cc(Oc3ccc(C(=O)N4CCC4)nc3)cc(OC(C)C)c2)n1)OCC ?
66

Consider the molecule shown here: CCOP(=O)(Cn1ccc(NC(=O)c2cc(Oc3cnc(C(=O)N4CCC4)nc3)cc(OC(C)C)c2)n1)OCC What is its recorded remaining at 10 min, 0.5 µM?
99

# input molecule: CCOP(=O)(Cn1ccc(NC(=O)c2cc(Oc3cnc(C(=O)NC)cn3)cc(OC(C)C)c2)n1)OCC ; wanted: its remaining at 10 min, 0.5 µM
98

Recorded remaining at 10 min, 0.5 µM for CCOP(=O)(Cn1ccc(NC(=O)c2cc(Oc3cnc(C(N)=O)cn3)cc(OC(C)C)c2)n1)OCC , please?
100

Further cases:
GET /values?readout=remaining at 10 min, 0.5 µM&item= CCOP(=O)(Cn1ccc(NC(=O)c2cc(Oc3ccc(C(=O)N4CCC4)nn3)cc(OC(C)C)c2)n1)OCC
99

Fill in the blank: the reported remaining at 10 min, 0.5 µM of CCO[P@](C)(=O)Cn1ccc(NC(=O)c2cc(Oc3ccc(S(C)(=O)=O)cc3)cc(O[C@@H](C)COC)c2)n1 is ____.
81

I have this molecule here, CCOP(=O)(Cn1ccc(NC(=O)c2cc(Oc3ccc(S(=O)(=O)CC)cc3)cc(OC(C)C)c2)n1)OCC , and I need its recorded remaining at 10 min, 0.5 µM.
94

###

- System: sodium channel
- protocol.details: Inhibition of sodium channel (unknown origin) at 1 Hz at 10 uM by patch clamp assay relative to control
- Assay type: toxicity
- experimental.conditions: human
readout.label: inhibition at 10 µM
Answer format: value, then unit.

Name the recorded inhibition at 10 µM for CCOP(=O)(Cn1ccc(NC(=O)c2cc(Oc3cnc(C(=O)N4CCC4)cn3)cc(OC(C)C)c2)n1)OCC .
9%
